molecular target: calcium/calmodulin (Ca/CAM)-independent cGMP PDE (Oryctolagus cuniculus, UniProt G1SX67); construct: The PDE enzymes are isolated from rabbit platelets and rat kidney; experiment: In vitro inhibition of Ca/CAM-independent cGMP PDE; conditions: Ca/CAM-independent cGMP PDE from rabbit platelets, in vitro
experimental_readout: pIC50
Note on units: pIC50 is unitless, being -log10 of a concentration expressed in mol/L.

Recorded results for 5 compounds are shown here.
CCCOc1ccc(C(C)=O)cc1-c1nc2c(C)cccc2c(=O)[nH]1 | 7.31
CCOc1ccc(S(=O)(=O)N2CCN(CCO)CC2)cc1-c1nc2c(C)cccc2c(=O)[nH]1 | 7.43
CCCOc1ccccc1-c1nc2c(C(=O)NCC)cccc2c(=O)[nH]1 | 7.85
CCCOc1ccc(S(=O)(=O)N2CCN(CCO)CC2)cc1-c1nc2c(C)cccc2c(=O)[nH]1 | 8.19
CCOc1ccc(C(O)CN2CCOCC2)cc1-c1nc2c(C)cccc2c(=O)[nH]1 (centres unmarked) | 7.28

What the record says about CCOc1ccc(S(=O)(=O)N2CCN(CCO)CC2)cc1-c1nc2c(C(N)=O)cccc2c(=O)[nH]1 : pIC50 is 7.47

pIC50 measured on CCCOc1ccc(C=CC(=O)OC(C)(C)C)cc1-c1nc2c(C)cccc2c(=O)[nH]1 = 7.27

get_value(item= CCCOc1ccc(C=CC(=O)N2CCN(C)CC2)cc1-c1nc2c(C)cccc2c(=O)[nH]1 , readout=pIC50) returns 7.43
